Origin of values: patent US7977349B2

- Experimental Details: Cytostatic effects on NHDF cells in the anti-HCMV cytopathogenicity test
- Format: cell-based, human
- Experimental Conditions: human, concentration at which no visible cytostatic effects on NHDF cells are evident vs untreated cell control
Measured CC50 at 6 days accompanies every entry in the list below.
Metric: CC50 at 6 days (µM)

INSERT INTO assay_data (compound, metric, reported_measurement) VALUES
  ('COc1c(N2CCC(C(=O)O)CC2)c(F)cc2c(=O)c(C(=O)NCc3ccc(OC(F)(F)F)cc3Cl)cn(CC(F)(F)F)c12 [Example 48]', 'CC50 at 6 days', 20),
  ('COc1c(N2CCC(C(=O)O)CC2)c(F)cc2c(=O)c(C(=O)NCc3ccc(Cl)cc3C)cn(CC(F)(F)F)c12 [Example 58]', 'CC50 at 6 days', 47),
  ('Cc1cc(OC(F)(F)F)ccc1CNC(=O)c1cn(CC(F)(F)F)c2c(O)c(N3CCC(C(=O)O)CC3)c(F)cc2c1=O [Example 77]', 'CC50 at 6 days', 250),
  ('COc1c(N2CCC(C(=O)O)CC2)c(F)cc2c(=O)c(C(=O)NCc3ccc(Cl)cc3Cl)cn(CC(F)(F)F)c12 [Example 50]', 'CC50 at 6 days', 47),
  ('COc1c(N2CCC(C(=O)O)CC2)c(F)cc2c(=O)c(C(=O)NCc3c(C)cc(Cl)cc3Cl)cn(CC(F)(F)F)c12 [Example 57]', 'CC50 at 6 days', 23),
  ('COc1c(N2C[C@@H](C)[C@@H](O)[C@@H](C)C2)c(F)cc2c(=O)c(C(=O)NCc3ccc(OC(F)(F)F)cc3C)cn(CC(F)(F)F)c12 [Example 32]', 'CC50 at 6 days', 11),
  ('COc1c(N2CCC(C(N)=O)CC2)c(F)cc2c(=O)c(C(=O)NCc3ccc(OC(F)(F)F)cc3C)cn(CC(F)(F)F)c12 [Example 31]', 'CC50 at 6 days', 16),
  ('CCOC(=O)C1CCN(c2c(F)cc3c(=O)c(C(=O)NCc4ccc(Cl)cc4C)cn(CC(F)(F)F)c3c2OC)CC1 [Example 7]', 'CC50 at 6 days', 94),
  ('COc1c(N2CCC(CC(=O)O)CC2)c(F)cc2c(=O)c(C(=O)NCc3ccc(Cl)cc3C)cn(C3CC3)c12 [Example 67]', 'CC50 at 6 days', 21);
